measuredOn: BpsCAγ (Burkholderia pseudomallei, UniProt Q63SQ4)
Sequence (Q63SQ4 1-174): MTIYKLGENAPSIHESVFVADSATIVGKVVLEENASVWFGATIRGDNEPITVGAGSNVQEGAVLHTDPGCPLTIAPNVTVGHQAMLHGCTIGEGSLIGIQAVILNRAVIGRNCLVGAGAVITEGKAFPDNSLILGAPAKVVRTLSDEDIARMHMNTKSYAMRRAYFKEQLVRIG
Format: biochemical
protocolConditions: read-out: KI BpsCAγ
pKi: −log10 of the molar value.
Label scheme for pKi: lower than 6 is false (0), 6 and above is true (1).

Below are worked cases with known answers.
molecule: COc1cc(C(CC(=O)NCCS(N)(=O)=O)C2C(=O)C[C@@H](C)[C@]3(Oc4c(Cl)c(OC)cc(OC)c4C3=O)C2=O)ccc1O (stereo partly drawn)
className: false (0)
--
molecule: CC(=O)c1c(O)c(C)c(O)c2c1OC1=CC(=O)C(=C(C)Nc3ccc(S(N)(=O)=O)cc3O)C(=O)[C@@]12C
className: true (1)

Next up:
Incoming: pKi >= 6 for COc1cc(OC)c2c(c1Cl)OC1(C(=O)C=C(NCCS(N)(=O)=O)CC1C)C2=O (stereo not drawn) ?
Outgoing: true (1)

###

Listed compounds paired with reported Ki
measuredOn: SmuCA (Streptococcus mutans, UniProt Q8DVY1)
Sequence (Q8DVY1 1-166): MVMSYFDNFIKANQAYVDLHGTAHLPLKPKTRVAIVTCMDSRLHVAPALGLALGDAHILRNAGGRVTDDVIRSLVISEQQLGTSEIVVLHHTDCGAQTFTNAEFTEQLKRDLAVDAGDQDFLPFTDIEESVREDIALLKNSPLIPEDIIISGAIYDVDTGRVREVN
Please state the figure in nM; there is no need to write the unit.

Below: 3 compounds and their reported Ki.
compound: CC(=O)c1c(O)c(C)c(O)c2c1OC1=CC(=O)C(=C(C)Nc3cc(S(N)(=O)=O)ccc3O)C(=O)[C@@]12C
measuredOn: SmuCA (Streptococcus mutans, UniProt Q8DVY1)
assayEndpoint: Ki
unitName: nM
readoutValue: 1700

compound: COc1cc(OC)c2c(c1Cl)OC1(C(=O)C=C(NCc3ccc(S(N)(=O)=O)cc3)CC1C)C2=O (stereo not drawn)
measuredOn: SmuCA (Streptococcus mutans, UniProt Q8DVY1)
assayEndpoint: Ki
unitName: nM
readoutValue: 4000

compound: COc1cc(OC)c2c(c1Cl)O[C@]1(C2=O)C(=O)C(C(CC(=O)NCC(=O)Nc2ccc(S(N)(=O)=O)cc2)c2ccc(SC)cc2)C(=O)C[C@H]1C (stereo partly drawn)
measuredOn: SmuCA (Streptococcus mutans, UniProt Q8DVY1)
assayEndpoint: Ki
unitName: nM
readoutValue: 1230

Incoming: Return reported Ki for target or system SmuCA (Streptococcus mutans, UniProt Q8DVY1), item COc1cc(OC)c2c(c1Cl)OC1(C(=O)C=C(NCCS(N)(=O)=O)CC1C)C2=O (stereo not drawn) .
Outgoing: 1630

Incoming: Lab note: SmuCA (Streptococcus mutans, UniProt Q8DVY1) assay, enter Ki for COc1cc(OC)c2c(c1Cl)O[C@@]1(C(=O)/C(=C\NCc3ccc(S(N)(=O)=O)cc3)C(=O)C[C@H]1C)C2=O here
Outgoing: 1640

Incoming: GET Ki | system: SmuCA (Streptococcus mutans, UniProt Q8DVY1) | item: COc1cc(OC)c2c(c1Cl)O[C@]1(C2=O)C(=O)C(C(CC(=O)NCCc2ccc(S(N)(=O)=O)cc2)c2ccc(SC)cc2)C(=O)C[C@H]1C (stereo partly drawn)
Outgoing: 889

###

measuredOn: CpsCAγ (Colwellia psychrerythraea, UniProt Q48AV3)
Sequence (Q48AV3 entry or part of it): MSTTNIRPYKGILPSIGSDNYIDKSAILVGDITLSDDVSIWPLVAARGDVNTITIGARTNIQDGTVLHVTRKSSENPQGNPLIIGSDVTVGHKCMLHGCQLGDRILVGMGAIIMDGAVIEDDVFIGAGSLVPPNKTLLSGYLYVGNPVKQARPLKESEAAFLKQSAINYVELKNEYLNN
measurementProtocol: biochemical
Assay type: biochemical
protocolConditions: mean from 3 different assays, errors ±5–10%; read-out: KI CpsCAγ
In this section we review reported Ki values for a set of molecules.
Answer with a number only, understood to be in nM.

Incoming: Tell us which Ki value is on record for COc1cc(OC)c2c(c1Cl)O[C@]1(C2=O)C(=O)C(C(CC(=O)NCC(=O)Nc2ccc(S(N)(=O)=O)cc2)c2ccc(SC)cc2)C(=O)C[C@H]1C (stereo partly shown)
Outgoing: 177

Incoming: Give the reported Ki for this molecule. COc1cc(OC)c2c(c1Cl)O[C@]1(C2=O)C(=O)C(C(CC(=O)NCCc2ccc(S(N)(=O)=O)cc2)c2ccc(SC)cc2)C(=O)C[C@H]1C (stereo partly shown)
Outgoing: 804

Incoming: Let me know recorded Ki for COc1cc(C(CC(=O)NCCS(N)(=O)=O)C2C(=O)C[C@@H](C)[C@]3(Oc4c(Cl)c(OC)cc(OC)c4C3=O)C2=O)ccc1O (stereo partly shown) , thanks.
Outgoing: 301

Incoming: Recall and state the measured Ki for COc1cc(OC)c2c(c1Cl)O[C@]1(C2=O)C(=O)C(C(CC(=O)NCc2ccc(S(N)(=O)=O)cc2)c2ccc(SC)cc2)C(=O)C[C@H]1C (stereo partly shown) .
Outgoing: 625
